system: IgG receptor FcRn large subunit p51 (Homo sapiens)
assayProcedure: Binding affinity to human FcRn at pH 6 by surface plasmon resonance assay
Bridge positions count the residues as written; N and C are the ends. Peptide text beside a SMILES is read from it.
assayMetric: Kd (µM)
Report the value in µM with no unit label.

CC(C)C[C@H](NC(=O)[C@@H]1CCCN1C(=O)[C@@H](Cc1ccccc1)NC(=O)[C@H](Cc1ccccc1)NC(=O)[C@H](Cc1cnc[nH]1)NC(=O)CNC(=O)[C@@H](NC(=O)[C@@H](NC(=O)[C@H](Cc1ccccc1)NC(=O)[C@H](CCCNC(=N)N)NC(=O)[C@@H](N)CCC(N)=O)C(C)(C)S)[C@@H](C)O)C(=O)N[C@@H](Cc1ccc(O)cc1)C(=O)N1CCC[C@H]1C(=O)N[C@@H](CS)C(=O)N[C@@H](CC(N)=O)C(=O)NCC(=O)N1CCC[C@H]1C(=O)O ... 3.8

Input line: Give recorded Kd. CC(C)C[C@H](NC(=O)[C@@H](C)NC(=O)CNC(=O)[C@H](Cc1ccccc1)NC(=O)[C@H](Cc1cnc[nH]1)NC(=O)CNC(=O)[C@@H](NC(=O)[C@@H](NC(=O)[C@H](Cc1ccccc1)NC(=O)[C@H](CCCN=C(N)N)NC(=O)[C@@H](N)CCC(N)=O)C(C)(C)S)[C@@H](C)O)C(=O)N[C@@H](Cc1ccc(O)cc1)C(=O)N1CCC[C@H]1C(=O)N[C@@H](CS)C(=O)N[C@@H](CC(N)=O)C(=O)NCC(=O)N1CCC[C@H]1C(=O)O
Output line: 0.48

Input line: Give recorded Kd. CC[C@H](C)[C@@H]1NC(=O)CNC(=O)[C@H](CC(=O)O)NC(=O)[C@H]([C@@H](C)CC)NC(=O)[C@H](Cc2cnc[nH]2)NC(=O)CNC(=O)[C@H](CCC(=O)O)NC(=O)[C@H]([C@@H](C)CC)NC(=O)[C@@H](NC(=O)[C@H](Cc2ccc(O)cc2)NC(=O)[C@H](CO)NC(=O)[C@@H]2CCCN2)CSSC[C@@H](C(=O)N[C@@H](Cc2ccccc2)C(=O)N[C@@H](CC(N)=O)C(=O)N[C@@H](C)C(=O)O)NC(=O)[C@H](Cc2ccc(O)cc2)NC1=O (H-PSYCIEGHIDGIYCFNA-OH; disulfide 4-14)
Output line: 8.8

###

system: IgG receptor FcRn large subunit p51 (Homo sapiens, UniProt P55899)
Sequence (P55899 whole entry): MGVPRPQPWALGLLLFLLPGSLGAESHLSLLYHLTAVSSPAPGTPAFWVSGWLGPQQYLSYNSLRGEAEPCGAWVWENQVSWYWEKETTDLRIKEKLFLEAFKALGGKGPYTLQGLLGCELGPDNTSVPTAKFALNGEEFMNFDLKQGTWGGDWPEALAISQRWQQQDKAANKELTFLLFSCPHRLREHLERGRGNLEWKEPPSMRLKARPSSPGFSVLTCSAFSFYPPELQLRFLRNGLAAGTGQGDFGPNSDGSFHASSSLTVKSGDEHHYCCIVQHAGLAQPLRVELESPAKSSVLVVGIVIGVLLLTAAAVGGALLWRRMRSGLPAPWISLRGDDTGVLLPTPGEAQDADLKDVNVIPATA
assayProcedure: Inhibition of human IgG binding to soluble human FcRn by ELISA
assayMetric: IC50 (µM)
Report the value in µM with no unit label.

Cc1cccc(C[C@H](NC(=O)[C@H](Cc2cnc[nH]2)NC(=O)CNC(=O)[C@@H](NC(=O)[C@@H](NC(=O)[C@H](Cc2ccccc2)NC(=O)[C@H](CCCN=C(N)N)NC(=O)[C@@H](N)CCC(N)=O)C(C)(C)S)[C@@H](C)O)C(=O)NCC(=O)NCC(=O)N[C@@H](CC(C)C)C(=O)N[C@@H](Cc2ccc(O)cc2)C(=O)N2CCC[C@H]2C(=O)N[C@@H](CS)C(=O)N[C@@H](CC(N)=O)C(=O)NCC(=O)N2CCC[C@H]2C(=O)O)c1 ... 4.1
CC(C)C[C@@H](C(=O)N[C@@H](Cc1ccc(O)cc1)C(=O)N1CCC[C@H]1C(=O)N[C@@H](C)C(=O)O)N(C)C(=O)CN(C)C(=O)CNC(=O)[C@H](Cc1ccccc1)NC(=O)[C@H](Cc1cnc[nH]1)NC(=O)CNC(=O)[C@@H](NC(=O)[C@@H](NC(=O)[C@H](Cc1ccccc1)NC(=O)[C@@H](N)CCCNC(=N)N)C(C)C)[C@@H](C)O ... 37
CC(C)C[C@H](NC(=O)CN(C)C(=O)CNC(=O)[C@H](Cc1ccccc1)NC(=O)[C@H](Cc1cnc[nH]1)NC(=O)CNC(=O)[C@@H](NC(=O)[C@@H](NC(=O)[C@H](Cc1ccccc1)NC(=O)[C@H](CCCN=C(N)N)NC(=O)[C@@H](N)CCC(N)=O)C(C)(C)S)[C@@H](C)O)C(=O)N[C@@H](Cc1ccc(O)cc1)C(=O)N1CCC[C@H]1C(=O)N[C@@H](CS)C(=O)N[C@@H](CC(N)=O)C(=O)NCC(=O)N1CCC[C@H]1C(=O)O ... 0.9

Input line: Give recorded IC50. CC(C)C[C@H](NC(=O)CNC(=O)CNC(=O)[C@H](Cc1ccccc1)NC(=O)[C@H](Cc1cnc[nH]1)NC(=O)CNC(=O)[C@@H](NC(=O)[C@H](CCCCN)NC(=O)[C@H](Cc1ccccc1)NC(=O)[C@H](CCCNC(=N)N)NC(=O)[C@@H](N)CCC(N)=O)[C@@H](C)O)C(=O)N[C@@H](Cc1ccc(O)cc1)C(=O)N1CCC[C@H]1C(=O)N[C@@H](CC(=O)O)C(=O)N[C@@H](CC(N)=O)C(=O)NCC(=O)N1CCC[C@H]1C(=O)O
Output line: 60

Input line: Give recorded IC50. CC(C)C[C@H](NC(=O)CNC(=O)CNC(=O)[C@H](Cc1ccccc1)NC(=O)[C@H](Cc1cnc[nH]1)NC(=O)CNC(=O)[C@@H](NC(=O)[C@@H](NC(=O)[C@H](Cc1ccccc1)NC(=O)[C@H](CCCN=C(N)N)NC(=O)[C@@H](N)CCC(N)=O)C(C)(C)S)[C@@H](C)O)C(=O)N[C@@H](Cc1ccc(O)cc1)C(=O)N1CCC[C@H]1C(=O)N[C@H](C(=O)N[C@@H](CC(N)=O)C(=O)NCC(=O)N1CCC[C@H]1C(=O)O)C(C)(C)S
Output line: 2

###

system: IgG receptor FcRn large subunit p51 (Homo sapiens, UniProt P55899)
assayProcedure: Inhibition of human IgG binding to soluble human FcRn by ELISA
assayMetric: pIC50
Kindly note that pIC50 refers to -log10 of the concentration in mol/L and answer with the value alone.

Input line: Give recorded pIC50. CC(C)C[C@H](NC(=O)CNC(=O)CNC(=O)[C@H](Cc1ccccc1)NC(=O)[C@H](Cc1cnc[nH]1)NC(=O)CNC(=O)[C@@H](NC(=O)[C@@H](NC(=O)[C@H](Cc1ccccc1)NC(=O)[C@@H](N)CCCN=C(N)N)C(C)(C)S)[C@@H](C)O)C(=O)N[C@@H](Cc1ccc(O)cc1)C(=O)N1CCC[C@H]1C(=O)N[C@@H](CS)C(=O)O
Output line: 5.70

###

system: IgG receptor FcRn large subunit p51 (Homo sapiens, UniProt P55899)
assayProcedure: Binding affinity to human FcRn at pH 6 by surface plasmon resonance assay
assayMetric: Kd

CC(C)C[C@@H](C(=O)N[C@@H](Cc1ccc(O)cc1)C(=O)N1CCC[C@H]1C(=O)N[C@@H](CS)C(=O)O)N(C)C(=O)CN(C)C(=O)CNC(=O)[C@H](Cc1ccccc1)NC(=O)[C@H](Cc1cscn1)NC(=O)CNC(=O)[C@@H](NC(=O)[C@@H](NC(=O)[C@H](Cc1ccccc1)NC(=O)[C@@H](N)CCCN=C(N)N)C(C)(C)S)[C@@H](C)O ... 840 nM

Input line: Give recorded Kd. CC(C)C[C@@H](C(=O)N[C@@H](Cc1ccc(O)cc1)C(=O)N1CCC[C@H]1C(=O)N[C@@H](CS)C(=O)O)N(C)C(=O)CN(C)C(=O)CNC(=O)[C@H](Cc1ccccc1)NC(=O)[C@H](Cc1cnc[nH]1)NC(=O)CNC(=O)[C@@H](NC(=O)[C@@H](NC(=O)[C@H](Cc1ccccc1)NC(=O)[C@@H](N)CCCNC(=N)N)C(C)(C)S)[C@@H](C)O
Output line: 31 nM

###

Overview of reported Kd across a group of compounds:
system: IgG receptor FcRn large subunit p51 (Homo sapiens)
assayProcedure: Binding affinity to human FcRn at pH 7.4 by surface plasmon resonance assay

Example compounds with recorded Kd:
CC(C)C[C@@H](C(=O)N[C@@H](Cc1ccc(O)cc1)C(=O)N1CCC[C@H]1C(=O)N[C@@H](CS)C(=O)O)N(C)C(=O)CN(C)C(=O)CNC(=O)[C@H](Cc1ccccc1)NC(=O)[C@H](Cc1ccncc1)NC(=O)CNC(=O)[C@@H](NC(=O)[C@@H](NC(=O)[C@H](Cc1ccccc1)NC(=O)[C@@H](N)CCCNC(=N)N)C(C)(C)S)[C@@H](C)O ... 0.28 µM
CC(C)C[C@@H](C(=O)N[C@@H](Cc1ccc(O)cc1)C(=O)N1CCC[C@H]1C(=O)N[C@@H](CS)C(=O)O)N(C)C(=O)CN(C)C(=O)CNC(=O)[C@H](Cc1ccccc1)NC(=O)[C@H](CCCN)NC(=O)CNC(=O)[C@@H](NC(=O)[C@@H](NC(=O)[C@H](Cc1ccccc1)NC(=O)[C@@H](N)CCCNC(=N)N)C(C)(C)S)[C@@H](C)O ... 1.2 µM

// next entry
Input line: Report the value of Kd obtained on IgG receptor FcRn large subunit p51 (Homo sapiens) for CC(C)C[C@@H](C(=O)N[C@@H](Cc1ccc(O)cc1)C(=O)N1CCC[C@H]1C(=O)N[C@@H](CS)C(=O)O)N(C)C(=O)CN(C)C(=O)CNC(=O)[C@H](Cc1ccccc1)NC(=O)[C@H](CCCNC(=N)N)NC(=O)CNC(=O)[C@@H](NC(=O)[C@@H](NC(=O)[C@H](Cc1ccccc1)NC(=O)[C@@H](N)CCCNC(=N)N)C(C)(C)S)[C@@H](C)O .
Output line: 0.5 µM
